biological target: T1, biotinylated hBLyS-ECD (human, UniProt Q9Y275 134-285, biotinylated with Biotin-X-X-NHS (molar ratio 7:1); sites not stated); experiment: competition ELISA; competitor 8E7D9C7F5
T1 construct: also called biotinylated immunogen; biotinylated hBLvS-ECD
T1 sequence (Q9Y275 134-285): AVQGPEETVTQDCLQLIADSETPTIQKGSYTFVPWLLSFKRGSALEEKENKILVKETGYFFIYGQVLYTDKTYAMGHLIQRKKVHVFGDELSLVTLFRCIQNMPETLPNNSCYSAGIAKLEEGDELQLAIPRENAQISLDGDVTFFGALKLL
A collection of binders and their measured inhibitory rate (%)
Please give a number only; it is taken to be in %.

*Q* Report inhibitory rate (%) for 67A2E1D10 (antibody, V domains shown, Mouse hybridoma antibody purified on Protein G) VH: EVQLQQSGAELVKPGASVKLSCTASGFNIKNYYMHWVKQRTEEGLEWIGRIDPEDGETKYAPKFQAKATITADTSSNTAYLQLSSLTSEDTAVYFCARKGYYGNYGAWFAYWGQGTLVTVSA VL: DIQMTQSPASLSVSVGETVTITCRASEDLYSNLAWYQQKQGKSPQLLVYAATFLADGVPSRFSGSGSGTQYSLKINSLQSEDFGNYYCQHFWGTPPTFGGGTKLEIK please.
*A* 63

*Q* Report inhibitory rate (%) for 111D10D6G3 (antibody, V domains shown, Mouse hybridoma antibody purified on Protein G) VH: QVQLQQPGAELVKPGASVKMSCKASGYTFTRHWITWVKQRPGQGLEWIGDIFPGSGSINYNEKFKSEATLTVEKSSSTAYMQLSSLTSEDSAVYYCARGDVDVWGTGTTVTVSS VL: DIQMTQSPSSLSASLGERVSLTCRASQEIRGYLSWLQQKPNGTIKRLIYAASTLDSGVPKRFSATRSGSDFSLTISSLESEDFADYYCLQYASYPFTFGSGTKLEIK please.
*A* 27

*Q* Report inhibitory rate (%) for 8E7D9C7F5 (antibody, V domains shown, Mouse hybridoma antibody purified on Protein G) VH: QVQLQQSGVELARPGASVKLSCKASGYTFTSYGISWVKQRTGQALEWIGEIYPRSGNTYYNEKFKGKATLTADKSSSTAYMELRSLTSEDSAVYFCARSGPITTLVATDYGMDYWGQGTSVTVSS VL: DIVLTQSPASLAVSLGQRATISCRASKSVSTSSYSYMHWYQQKPGQPPKLLIKFASNLESGVPARFSGSGSGTDFTLNIHPVEEEDAATYYCQHSREFPYTFGGGTKLEIK please.
*A* 92

New cases:
*Q* Report inhibitory rate (%) for 93C6F10D3 (antibody, V domains shown, Mouse hybridoma antibody purified on Protein G) VH: EVQLVESGGGLVTPGGSLKLSCVASGFAFSTYGMSWVRQTPERRLEWVAYISGGGGSIYYPDSVKGRFTISRDNAKNILYLQMSSLKSEDTAMYHCTRHPDLLLRYDYALDHWGQGTSVTVSS VL: DIQMTQSPASLSASVGETVTITCRASENIHIYLAWYQQKQGKSPQLLVYNGKTLADGVPSRFSGSGSGTQYSLKINTLQPEDFGNYYCQHFWNSTWTFGGGTKLEIK please.
*A* 94

Values were extracted from patent US20210347873A1.
